# subject_of_test: T1, HLA DQ molecule DQB1*0302 (human, UniProt P01909 24-216; P01920 33-230, limits assumed)
# T1 MHC II alpha: not shown
# T1 MHC II beta: not shown
# assay_protocol: inhibition of radiolabeled peptide binding to purified HLA class II
pIC50: −log10 of the molar value.
quantity_name: pIC50

>>> endpoint_value("PAVKYIEPDMIVNAT [Pen ch 13 (101-115) peptide PAVKYIEPDMIVNAT, Peptide ID 3324.1304]")
6.09
